biological target: human TrkA (Homo sapiens); construct: purchased Lifetechnologies PV3144; test: Test Example 2: Human TrkA Inhibition Assay; format: biochemical; conditions: human TrkA inhibition, Test Example 2; class symbols A/B/C; read-out: IC50_nM
# IC50 per record follows

Value of measured IC50 for the entry COCCN1C[C@@H](NC(=O)Nc2c(C)c(-c3cnn(C)c3)nn2-c2ccccc2)[C@H](c2cc3ccccc3o2)C1 (racemic) : 100 to 1000 nM

Value of measured IC50 for the entry COCCN1C[C@@H](NC(=O)Nc2c(C)c(-c3cnn(C)c3)nn2-c2ccccc2)[C@H](c2cccc(-c3cn[nH]c3)c2)C1 (racemic) : > 1000 nM

Value of measured IC50 for the entry Cc1c(-c2cnn(C)c2)nn(-c2ccccc2)c1NC(=O)N[C@@H]1CN(C2CCCCC2)C[C@H]1c1ccc(F)c(F)c1 : > 1000 nM

---

Molecular target: human TrkA (Homo sapiens, UniProt P04629)
Construct: purchased Lifetechnologies PV3144
Sequence (P04629 33-796): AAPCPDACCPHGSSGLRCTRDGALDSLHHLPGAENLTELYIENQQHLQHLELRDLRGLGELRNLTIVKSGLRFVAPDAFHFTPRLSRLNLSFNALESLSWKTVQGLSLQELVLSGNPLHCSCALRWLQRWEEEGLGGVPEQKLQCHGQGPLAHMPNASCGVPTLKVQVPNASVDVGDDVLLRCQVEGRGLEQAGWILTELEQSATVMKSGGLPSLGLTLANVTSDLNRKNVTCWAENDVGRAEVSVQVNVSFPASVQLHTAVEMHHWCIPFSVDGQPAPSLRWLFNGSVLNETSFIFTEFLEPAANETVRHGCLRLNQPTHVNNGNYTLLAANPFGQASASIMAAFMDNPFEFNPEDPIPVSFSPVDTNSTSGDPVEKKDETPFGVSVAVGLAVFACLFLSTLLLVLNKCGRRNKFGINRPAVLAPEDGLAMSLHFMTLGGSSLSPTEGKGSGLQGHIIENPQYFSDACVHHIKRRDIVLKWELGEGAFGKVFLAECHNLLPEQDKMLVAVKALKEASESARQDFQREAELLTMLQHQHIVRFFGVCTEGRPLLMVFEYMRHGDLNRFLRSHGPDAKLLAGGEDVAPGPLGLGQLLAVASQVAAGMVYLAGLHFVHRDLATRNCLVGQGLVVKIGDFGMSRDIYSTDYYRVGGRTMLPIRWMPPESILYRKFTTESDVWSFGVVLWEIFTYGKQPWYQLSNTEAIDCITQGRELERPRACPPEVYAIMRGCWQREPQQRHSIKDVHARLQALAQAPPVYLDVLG
Assay: Test Example 2: Human TrkA Inhibition Assay
Assay type: biochemical
Settings: human TrkA inhibition, Test Example 2; class symbols A/B/C; read-out: IC50_nM
Experimental: After the incubation for 90 min at room temperature, ten μL of termination buffer (100 mmol/L HEPES, 40 mmol/L ethylenediaminetetraacetic acid (EDTA), 10 mmol/L magnesium chloride, 0.003 vol % Brij-35, 0.004 vol % Tween20, 1 mmol/L DTT and 0.16 vol % Coating Reagent 3) was added in each well to stop the enzyme reaction. […] The inhibitory effect of each compound on TrkA phosphorylation was calculated by the following formula-2. […]
pIC50: −log10 of the molar value.
Property Label: pIC50

Value of measured pIC50 for the entry COCCN1C[C@@H](NC(=O)Nc2c(C)c(-c3cnn(C)c3)nn2-c2ccccc2)[C@H](c2ccc3oc(=O)[nH]c3c2)C1 (racemic) : < 6.00

Value of measured pIC50 for the entry COCC(CN)N1C[C@@H](NC(=O)Nc2c(C)c(-c3cnn(C)c3)nn2-c2ccccc2)[C@H](c2ccc(F)c(F)c2)C1 (stereo partly shown) : 6.00 to 7.00

Value of measured pIC50 for the entry Cc1c(-c2cnn(C)c2)nn(-c2ccccc2)c1NC(=O)N[C@@H]1CC(C)C[C@H]1c1ccccc1 (stereo partly shown) : > 7.00

Value of measured pIC50 for the entry COCCN1C[C@@H](NC(=O)Nc2c(C)c(-c3cnn(C)c3)nn2-c2ccccc2)[C@H](c2ccc3c(c2)NCCO3)C1 (racemic) : < 6.00

Value of measured pIC50 for the entry COCC[C@H]1C[C@@H](NC(=O)Nc2c(C)c(-c3cnn(C)c3)nn2-c2ccccc2)[C@H](c2ccccc2)C1 : > 7.00

---

target: human TrkA (Homo sapiens, UniProt P04629); construct: purchased Lifetechnologies PV3144; assay: Test Example 2: Human TrkA Inhibition Assay; assay type: biochemical; conditions: human TrkA inhibition, Test Example 2; class symbols A/B/C; read-out: IC50_nM
pIC50: −log10 of the molar value.
# pIC50 per record follows

[[record]]
compound = "COCC1(O)C[C@@H](NC(=O)Nc2c(C)c(-c3cnn(C)c3)nn2-c2ccccc2)[C@H](c2ccccc2)C1 (stereo partly shown)"
result = "< 6.00"

[[record]]
compound = "Cc1c(-c2cnn(C)c2)nn(-c2ccccc2)c1NC(=O)N[C@@H]1CN(CCNS(C)(=O)=O)C[C@H]1c1ccc(F)c(F)c1"
result = "6.00 to 7.00"


Value of measured pIC50 for the entry COC1CC2(C1)C[C@@H](NC(=O)Nc1c(C)c(-c3cnn(C)c3)nn1-c1ccccc1)[C@H](c1ccccc1)C2 (mixture of isomers) : < 6.00

Value of measured pIC50 for the entry COCC(CN1CCC1)N1C[C@@H](NC(=O)Nc2c(C)c(-c3cnn(C)c3)nn2-c2ccccc2)[C@H](c2ccc(F)c(F)c2)C1 (stereo partly shown) : 6.00 to 7.00

Value of measured pIC50 for the entry Cc1c(-c2cnn(C)c2)nn(-c2ccccc2)c1NC(=O)N[C@H]1[C@H](c2ccc(F)c(F)c2)[C@@H]2CC[C@H]1N2 (racemic) : < 6.00

Value of measured pIC50 for the entry COCC(CCO)N1C[C@@H](NC(=O)Nc2c(C)c(-c3cnn(C)c3)nn2-c2ccccc2)[C@H](c2ccc(F)c(F)c2)C1 (stereo partly shown) : > 7.00

Where do the numbers come from? From patent US10532985B2.
